- System: Ba/F3 P210-BCR-ABL1 RUNX1wt/wt control (mouse)
- MEASUREMENT NOTES: drug sensitivity score (DSS) (DSS score); higher = more sensitive (stronger growth inhibition); extreme values may be limits of the assay
Would you kindly list drug sensitivity score for each of these molecules?

Example results:
MOLECULE: C[C@]12C=CC(=O)C=C1CC[C@@H]1[C@@H]2[C@@H](O)C[C@@]2(C)[C@H]1CC[C@]2(O)C(=O)CO [Prednisolone]
drug sensitivity score: 0

MOLECULE: CN1CCC(CNc2ccc3ncc(-c4cccc(OC(F)(F)F)c4)n3n2)CC1 [SGI-1776]
drug sensitivity score: 5.2

MOLECULE: Nc1cc(COc2c(Cl)cc(C[C@H](N)C(=O)O)cc2Cl)c2oc(-c3ccccc3)nc2c1 [JPH203]
drug sensitivity score: 0

Alright, here's another molecule for you.
## Task Please indicate drug sensitivity score recorded for CCn1cc(-c2ccnc3[nH]c(-c4cccc(CN(C)C)c4)cc23)c(-c2ccc(NC(=O)N(C)C)cc2)n1
## Result 0.3

---

- Tested on: Ba/F3 P210-BCR-ABL1 RUNX1-/mut (mouse)
- MEASUREMENT NOTES: drug sensitivity score (DSS) (DSS score); higher = more sensitive (stronger growth inhibition); extreme values may be limits of the assay
Everything with drug sensitivity score lower than 8 is condition not met; everything else, including exactly 8, is condition met.

## Task Hi team, for CC(C)[C@H](C(=O)Nc1ccc(C(=O)NO)cc1)c1ccccc1 [AR-42] , is the recorded drug sensitivity score at or above 8?
## Result condition met

## Task Hi team, for COc1ccc(COc2cc3oc(=O)c4cc(C(C)O)ccc4c3cc2OC)cc1 (centres undefined) [Palomid-529] , is the recorded drug sensitivity score at or above 8?
## Result condition not met

## Task Hi team, for Cc1cccc(-c2nn3c(c2-c2ccnc4ccc(C(N)=O)cc24)CCC3)n1 [Galunisertib] , is the recorded drug sensitivity score at or above 8?
## Result condition not met

## Task Hi team, for CCCCc1nc2cc(/C=C/C(=O)NO)ccc2n1CCN(CC)CC [Pracinostat] , is the recorded drug sensitivity score at or above 8?
## Result condition met

## Task Hi team, for Nc1nc(F)nc2c1ncn2[C@@H]1O[C@H](CO)[C@@H](O)[C@@H]1O [Fludarabine] , is the recorded drug sensitivity score at or above 8?
## Result condition not met

## Task Hi team, for CN[C@@H](C)C(=O)N[C@H](C(=O)N1CCC[C@H]1c1nc(C(=O)c2ccc(F)cc2)cs1)C1CCCCC1 [NVP-LCL161] , is the recorded drug sensitivity score at or above 8?
## Result condition not met

---

- Tested on: Ba/F3 P210-BCR-ABL1 RUNX1-/mut (mouse)
- MEASUREMENT NOTES: drug sensitivity score (DSS) (DSS score); higher = more sensitive (stronger growth inhibition); extreme values may be limits of the assay
MEASURED METRIC: drug sensitivity score
Give bare numbers.

COMPOUND: C[C@@]1(C(=O)Nc2ccc(F)nc2)CCCN1c1nc(Nc2cc(C3CC3)n[nH]2)c2cccn2n1
TARGET SYSTEM: Ba/F3 P210-BCR-ABL1 RUNX1-/mut (mouse)
drug sensitivity score: 5.7

COMPOUND: CC[C@]12C=CCN3CC[C@@]4(c5cc([C@@]6(C(=O)OC)C[C@@H]7C[C@@H](C(C)(F)F)CN(Cc8c6[nH]c6ccccc86)C7)c(OC)cc5N(C)[C@H]4[C@@](O)(C(=O)OC)[C@@H]1OC(C)=O)[C@@H]32 [Vinflunine]
TARGET SYSTEM: Ba/F3 P210-BCR-ABL1 RUNX1-/mut (mouse)
drug sensitivity score: 3.95

COMPOUND: O=C(Nc1ccncc1)C(=O)c1cn(Cc2ccc(Cl)cc2)c2ccccc12 [Indibulin]
TARGET SYSTEM: Ba/F3 P210-BCR-ABL1 RUNX1-/mut (mouse)
drug sensitivity score: 7.05

COMPOUND: CCCCCCCCCCCCCCCCCCOP(=O)([O-])OC1CC[N+](C)(C)CC1 [Perifosine]
TARGET SYSTEM: Ba/F3 P210-BCR-ABL1 RUNX1-/mut (mouse)
drug sensitivity score: 0

COMPOUND: COc1cc(C)c(/C=C/C(C)=C/C=C/C(C)=C/C(=O)O)c(C)c1C [Acitretin]
TARGET SYSTEM: Ba/F3 P210-BCR-ABL1 RUNX1-/mut (mouse)
drug sensitivity score: 1.3

List drug sensitivity score for every entry below, keeping the order given.
1. Nc1cc(C(F)(F)F)c(-c2cc(N3CCOCC3)nc(N3CCOCC3)n2)cn1 [Buparlisib]
2. C[C@@H]1CN(C(=O)c2ccc(NC(=O)c3cc(O[C@H](C)c4c(Cl)ccc(F)c4Cl)c(N)nn3)cc2)C[C@H](C)N1 [Ensartinib]
3. CNC(=O)c1ccc(N2C(=S)N(c3ccc(C#N)c(C(F)(F)F)c3)C(=O)C2(C)C)cc1F [Enzalutamide]
4. COc1c(OCCCN2CCOCC2)ccc2c1N=C(NC(=O)c1cnc(N)nc1)N1CCN=C21 [Copanlisib]
5. Nc1ncnc2c1c(COc1cccc(Cl)c1)nn2C1CCOCC1
6. N#Cc1ccnc(N2C(=O)CC[C@H]2C(=O)N(c2cncc(F)c2)[C@H](C(=O)NC2CC(F)(F)C2)c2ccccc2Cl)c1 [Ivosidenib]

## Result
8.7
0.2
1.05
6.1
1.05
1.35

List drug sensitivity score for every entry below, keeping the order given.
1. CON(C)C(=O)N1N=C(c2cc(F)ccc2F)S[C@@]1(CCCN)c1ccccc1 [Filanesib]
2. Nc1ccn([C@@H]2O[C@H](CO)[C@@H](O)[C@@H]2O)c(=O)n1 [Cytarabine]
3. CC(C)(C)c1cc(NC(=O)Nc2ccc(Oc3ccnc4[nH]c(=O)cnc34)cc2F)n(-c2ccccc2)n1
4. CC[C@@H]1C(=O)N(C)c2cnc(Nc3ccc(C(=O)N[C@H]4CC[C@H](N5CCN(CC6CC6)CC5)CC4)cc3OC)nc2N1C(C)C [Volasertib]

## Result
[14.9, 8.25, 20.9, 10.3]

---

Would you kindly list drug sensitivity score for each of these molecules?
- Test system: Mye-BP RUNX1 p.R107C
- MEASUREMENT NOTES: drug sensitivity score (DSS) (DSS score); higher = more sensitive (stronger growth inhibition); extreme values may be limits of the assay
One number for each entry.

Example results:
MOLECULE: COc1cc(F)c(F)c(Nc2ccc(I)cc2F)c1NS(=O)(=O)C1(C[C@H](O)CO)CC1 [Refametinib]
TARGET SYSTEM: Mye-BP RUNX1 p.R107C
drug sensitivity score: 9.1
//
MOLECULE: Cc1[nH]c2ccccc2c1CCNCc1ccc(/C=C/C(=O)NO)cc1 [Panobinostat]
TARGET SYSTEM: Mye-BP RUNX1 p.R107C
drug sensitivity score: 29.4
//
MOLECULE: COc1cc2/c(=N/c3ccc(Br)cc3F)nc[nH]c2cc1OCC1CCN(C)CC1 [Vandetanib]
TARGET SYSTEM: Mye-BP RUNX1 p.R107C
drug sensitivity score: 0
//
MOLECULE: CCNC(=O)CCC/C=C\C[C@@H]1[C@@H](/C=C/[C@@H](O)CCc2ccccc2)[C@H](O)C[C@@H]1O [Bimatoprost]
TARGET SYSTEM: Mye-BP RUNX1 p.R107C
drug sensitivity score: 0
//
MOLECULE: Clc1ccc(Nc2nnc(Cc3ccncc3)c3ccccc23)cc1 [Vatalanib]
TARGET SYSTEM: Mye-BP RUNX1 p.R107C
drug sensitivity score: 0
//
MOLECULE: S=c1[nH]cnc2nc[nH]c12 [Mercaptopurine]
TARGET SYSTEM: Mye-BP RUNX1 p.R107C
drug sensitivity score: 0
//
MOLECULE: CC(C)C[C@H](NC(=O)[C@H](CCc1ccccc1)NC(=O)CN1CCOCC1)C(=O)N[C@@H](Cc1ccccc1)C(=O)N[C@@H](CC(C)C)C(=O)[C@@]1(C)CO1 [Carfilzomib]
TARGET SYSTEM: Mye-BP RUNX1 p.R107C
drug sensitivity score: 30.7

## Task Please indicate drug sensitivity score recorded for O=C(Nc1c[nH]nc1-c1nc2ccc(CN3CCOCC3)cc2[nH]1)NC1CC1 [AT9283]
## Result 0

---

Would you kindly list drug sensitivity score for each of these molecules?
- System: Ba/F3 P210-BCR-ABL1 RUNX1-/mut (mouse)
- MEASUREMENT NOTES: drug sensitivity score (DSS) (DSS score); higher = more sensitive (stronger growth inhibition); extreme values may be limits of the assay
Answers are plain numbers.

Example results:
MOLECULE: CN(C)CCCOc1ccc(-c2ccc3ncc4c(c3c2)n(C2CCOCC2)c(=O)n4C)cn1 [AZD0156]
TARGET SYSTEM: Ba/F3 P210-BCR-ABL1 RUNX1-/mut (mouse)
drug sensitivity score: 7.6
--
MOLECULE: CNC(=O)c1ccccc1Nc1nc(Nc2ccc3c(c2OC)CCC[C@H](N2CCN(CCO)CC2)C3)ncc1Cl
TARGET SYSTEM: Ba/F3 P210-BCR-ABL1 RUNX1-/mut (mouse)
drug sensitivity score: 8.65
--
MOLECULE: Clc1ccccc1C(c1ccccc1)(c1ccccc1)n1cccn1 [TRAM-34]
TARGET SYSTEM: Ba/F3 P210-BCR-ABL1 RUNX1-/mut (mouse)
drug sensitivity score: 0
--
MOLECULE: CC1(C)C(C(=O)Nc2ccc(S(=O)(=O)c3ccc(NC(=O)C4C(C)(C)C4(C)C)cc3)cc2)C1(C)C [BRD7116]
TARGET SYSTEM: Ba/F3 P210-BCR-ABL1 RUNX1-/mut (mouse)
drug sensitivity score: 0.05
--
MOLECULE: CC(=O)O[C@@]12CO[C@@H]1C[C@H](O)[C@@]1(C)C(=O)[C@H](O)C3=C(C)[C@@H](OC(=O)[C@H](O)[C@@H](NC(=O)OC(C)(C)C)c4ccccc4)C[C@@](O)([C@@H](OC(=O)c4ccccc4)[C@H]21)C3(C)C [Docetaxel]
TARGET SYSTEM: Ba/F3 P210-BCR-ABL1 RUNX1-/mut (mouse)
drug sensitivity score: 27.1
--
MOLECULE: CC(C)(O)CC(=O)NCCn1ccc2ncnc(Nc3ccc(Oc4cccc(C(F)(F)F)c4)c(Cl)c3)c21 [TAK-285]
TARGET SYSTEM: Ba/F3 P210-BCR-ABL1 RUNX1-/mut (mouse)
drug sensitivity score: 0.5

Alright, here's another molecule for you.
## Task Please indicate drug sensitivity score recorded for Cc1cc(Nc2cc(CN3CCOCC3)c3nc(C)c(Cc4ccc(Cl)cc4F)n3n2)n[nH]1 [Gandotinib]
## Result 4.9
